Each recorded value in this set is attributed to PubChem BioAssay (NCI).

Assign growth to each entry below.
Tested on: LOX IMVI melanoma
Test: NCI-60 one-dose screen, 48 h (100 = growth as untreated, 0 = no growth, -100 = all killed)
Details: 10 µM unless noted
Procedure: Growth inhibition of the LOX IMVI human tumor cell line is measured as a screen for anti-cancer activity. Cells are grown in 96 well plates and exposed to the test compound for 48 hours. Compounds are tested at a single concentration, which is 10^-5 M for most compounds. The reported endpoint is percent growth (GI% or GIPRCNT), where numbers from 0 - 100% represent growth inhibition, and numbers from -100% - 0 represent cell death. For example, a value of 40 represents 60% growth inhibition. […]
The panel holds about 83,000 compounds, 20% with a hit somewhere; the sample as a whole holds those more often. Calls of active or inactive are those of the source. How the source made its calls: active means growth percent below 10; inactive means the rest.

molecule	growth
COc1ccc(S(=O)(=O)N(C)c2oc(-c3ccc(Cl)cc3)nc2C#N)cc1	71.9% (inactive)
Cc1ccc(C23CCC(=O)N2CCc2cncn23)cc1 (centres undefined)	105% (inactive)
CC(=O)[C@H]1CC[C@]2(C)[C@@H]1CC[C@@H]1[C@@]3(C)C/C(=C/c4cccnc4)C(=O)C(C)(C)[C@@H]3CC[C@]12C	87.6% (inactive)
O=C(O)c1cc2ccccc2s1	99.6% (inactive)

Would you be so kind as to report growth for each listed record?
1. CN1/C(=C/C=C/c2n(Cc3ccc4ccccc4c3)c(Cl)c(Cl)[n+]2Cc2ccc3ccccc3c2)Oc2ccccc21
2. Cn1ccnc1C(=O)/C=C/c1ccc(C(=O)Nc2ccccc2F)cc1
3. O=C(Cn1cc(CSc2nc3ccccc3o2)nn1)Nc1ccc([N+](=O)[O-])cc1

["-93.8% (active)", "-41.1% (active)", "94.5% (inactive)"]

Provide the reported growth of each entry below, same order.
1. Cc1ccccc1NC(=O)Cn1cc(CN2CCN(c3ccnc4cc(Cl)ccc34)CC2)nn1
2. COc1cc2c(cc1-c1c(C)noc1C)ncc1nc(C3CCOCC3)n(C3CCC(OC(F)F)CC3)c12 (centres undefined)
3. Oc1ccc(Cc2ccc(O)c3ncccc23)c2cccnc12
4. O=C(NS(=O)(=O)c1ccccc1)n1cc(-c2ccncc2)c(-c2cc(O)cc(Cl)c2)n1
5. Cc1cc2c(c(C)n1)CN(C(=O)Nc1nc(-c3cncs3)ccc1N)C2

1. 97.7% (inactive)
2. 24% (inactive)
3. 16.7% (inactive)
4. 92.8% (inactive)
5. 111% (inactive)

For every record below, what is its growth?
1. COc1ccc(N/N=C/c2ccc3c(c2)Sc2ccccc2N3C)cc1
2. O=C(Nc1ccc2[nH]ncc2c1)c1csc(Nc2ccccc2)n1

28.1% (inactive)
40.8% (inactive)

----------
test system: TK-10 renal; assay: NCI-60 one-dose screen, 48 h; settings: 10 µM unless noted
Compounds without any hit were thinned out: in the full panel of roughly 83,000, 20% have a hit. Calls of active or inactive are those of the source. Rule for the calls: active = growth percent below 10; inactive = the rest.
Bench note: report the call from 1.0 for active, 0.0 for inactive

molecule	discrete_label
CN1CCN(Cc2ccc(NC(=O)c3cncc(C#Cc4c(N)ncc5ccccc45)c3)cc2C(F)(F)F)CC1	1.0

How was O=c1n(C2OC(CO)C(O)C2O)ccc2nccn12 (configuration not stated) classified in this test?
0.0

What classification did COc1ccccc1NC(=O)n1c(=O)cc(C)c2ccc(O)cc21 end up with in this test?
0.0

Recorded test outcome, item O=C1c2cccnc2C(=O)c2c1c(C(=O)OCCCN1CCOCC1)c1ccccn21
0.0

What did the test return for Cc1cc([N+](=O)[O-])ccc1NC(=O)c1ccc2c(c1)nc(-c1ccccc1)n2C1CCCCC1 ?
0.0

Look up the recorded call for C#CCOc1cccc(Nc2c(Cl)c(CCl)nc3ccc(Oc4ccccc4)cc23)c1 in this test.
0.0

What call does the record list for C#Cc1ccc(NC(=O)Cc2ccc(/C=C/C(=O)c3nccn3C)cc2)cc1 ?
0.0

Dear all, I need the recorded test outcome for CCCCC#Cc1c(I)n(C2OC(CO[Si](C)(C)C(C)(C)C)C3OC(C)(C)OC32)c(=O)[nH]c1=O (configuration not stated) , thank you.
0.0

Tell me the recorded outcome of this test for N#C/C(=C/C=C/c1ccccc1)S(=O)c1ccccc1 (configuration not stated) .
1.0

Could you kindly confirm the outcome this assay logged for O=C1C=CC2(O)OC(c3ccccc3)CC(=O)C2=C1O (configuration not stated) ?
0.0
